Listed here: items and their measured OD450.
Target: T1, murine TIM-3 extracellular domain protein with hFc tag (mTIM-3-hFc) (mouse, UniProt Q8VIM0 29-191)
T1 construct: also called mouse TIM-3 extracellular domain protein; not shown: human IgG Fc fragment (hFc) of the pCpC vector
T1 chain: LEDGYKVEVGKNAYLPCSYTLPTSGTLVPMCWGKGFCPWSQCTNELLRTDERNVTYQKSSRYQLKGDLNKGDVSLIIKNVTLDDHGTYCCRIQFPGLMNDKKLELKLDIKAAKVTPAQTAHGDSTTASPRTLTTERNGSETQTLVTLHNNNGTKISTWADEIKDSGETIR
Experiment: ELISA, coated mouse TIM-3 ECD protein, 6.6667 nM antibody
Test readout: OD450

[
  {
    "Binder": "39E5H1 fully human TIM-3 antibody (human IgG4, kappa) (antibody, V domains shown) VH: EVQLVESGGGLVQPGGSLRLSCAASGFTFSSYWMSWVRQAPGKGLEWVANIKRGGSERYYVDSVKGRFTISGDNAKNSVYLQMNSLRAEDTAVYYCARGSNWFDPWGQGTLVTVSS VL: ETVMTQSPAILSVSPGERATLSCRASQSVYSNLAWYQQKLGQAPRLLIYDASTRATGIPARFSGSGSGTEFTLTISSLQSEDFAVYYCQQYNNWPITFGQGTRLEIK",
    "Value": 0.41
  },
  {
    "Binder": "18D2H2 fully human TIM-3 antibody (human IgG4, kappa) (antibody, V domains shown) VH: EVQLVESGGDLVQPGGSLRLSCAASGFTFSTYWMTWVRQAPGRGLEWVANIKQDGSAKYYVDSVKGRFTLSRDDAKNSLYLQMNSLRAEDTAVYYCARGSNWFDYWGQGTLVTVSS VL: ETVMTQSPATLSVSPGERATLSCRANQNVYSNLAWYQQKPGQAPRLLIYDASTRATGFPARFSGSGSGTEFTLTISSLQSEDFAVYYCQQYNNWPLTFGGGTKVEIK",
    "Value": 0.31
  }
]
